system_name: hA1AR (Homo sapiens, UniProt P30542)
Construct: expressed in transfected cells; host or cells: CHO
Sequence (P30542 whole entry): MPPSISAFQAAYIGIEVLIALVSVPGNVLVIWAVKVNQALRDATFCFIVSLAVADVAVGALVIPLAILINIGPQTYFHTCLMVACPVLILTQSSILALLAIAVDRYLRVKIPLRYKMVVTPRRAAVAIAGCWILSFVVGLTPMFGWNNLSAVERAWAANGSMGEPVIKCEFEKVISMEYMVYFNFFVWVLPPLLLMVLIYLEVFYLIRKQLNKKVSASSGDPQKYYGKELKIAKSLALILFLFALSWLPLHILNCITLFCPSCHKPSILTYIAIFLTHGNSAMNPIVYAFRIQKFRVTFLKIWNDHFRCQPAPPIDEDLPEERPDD
assay_info: Binding at hA1AR, CHO membranes (Example 7)
details: read-out: % inhibition hA1
result_type: inhibition at 10 µM (%)

These recorded examples may help you get a feel for the data.
CNC(=O)[C@@]12C[C@@H]1[C@@H](n1cnc3c(NCc4cccc(Cl)c4)nc(C#Cc4cccc(Cl)c4)nc31)[C@H](O)[C@@H]2O	0
CNC(=O)[C@@]12C[C@@H]1[C@@H](n1cnc3c(NC)nc(C#Cc4ccccn4)nc31)[C@H](O)[C@@H]2O	13
CNC(=O)[C@@]12C[C@@H]1[C@@H](n1cnc3c(NCc4cccc(Cl)c4)nc(C#Cc4ccc(F)c(F)c4)nc31)[C@H](O)[C@@H]2O	3
CNC(=O)[C@@]12C[C@@H]1[C@@H](n1cnc3c(NC)nc(C#Cc4cccc5ccccc45)nc31)[C@H](O)[C@@H]2O	24

A = CNC(=O)[C@@]12C[C@@H]1[C@@H](n1cnc3c(NC)nc(C#Cc4ccccc4)nc31)[C@H](O)[C@@H]2O
B = CNC(=O)[C@@]12C[C@@H]1[C@@H](n1cnc3c(NC)nc(C#Cc4ccc(C(C)(C)C)cc4)nc31)[C@H](O)[C@@H]2O
Lowest inhibition at 10 µM? choose A or B Answer = label.
A
(A: 18%, B: 27%)
